Reported Dmax values for the following compounds.
- Study target: SMARCA2 (Homo sapiens, UniProt P51531)
- Sequence (P51531 whole entry): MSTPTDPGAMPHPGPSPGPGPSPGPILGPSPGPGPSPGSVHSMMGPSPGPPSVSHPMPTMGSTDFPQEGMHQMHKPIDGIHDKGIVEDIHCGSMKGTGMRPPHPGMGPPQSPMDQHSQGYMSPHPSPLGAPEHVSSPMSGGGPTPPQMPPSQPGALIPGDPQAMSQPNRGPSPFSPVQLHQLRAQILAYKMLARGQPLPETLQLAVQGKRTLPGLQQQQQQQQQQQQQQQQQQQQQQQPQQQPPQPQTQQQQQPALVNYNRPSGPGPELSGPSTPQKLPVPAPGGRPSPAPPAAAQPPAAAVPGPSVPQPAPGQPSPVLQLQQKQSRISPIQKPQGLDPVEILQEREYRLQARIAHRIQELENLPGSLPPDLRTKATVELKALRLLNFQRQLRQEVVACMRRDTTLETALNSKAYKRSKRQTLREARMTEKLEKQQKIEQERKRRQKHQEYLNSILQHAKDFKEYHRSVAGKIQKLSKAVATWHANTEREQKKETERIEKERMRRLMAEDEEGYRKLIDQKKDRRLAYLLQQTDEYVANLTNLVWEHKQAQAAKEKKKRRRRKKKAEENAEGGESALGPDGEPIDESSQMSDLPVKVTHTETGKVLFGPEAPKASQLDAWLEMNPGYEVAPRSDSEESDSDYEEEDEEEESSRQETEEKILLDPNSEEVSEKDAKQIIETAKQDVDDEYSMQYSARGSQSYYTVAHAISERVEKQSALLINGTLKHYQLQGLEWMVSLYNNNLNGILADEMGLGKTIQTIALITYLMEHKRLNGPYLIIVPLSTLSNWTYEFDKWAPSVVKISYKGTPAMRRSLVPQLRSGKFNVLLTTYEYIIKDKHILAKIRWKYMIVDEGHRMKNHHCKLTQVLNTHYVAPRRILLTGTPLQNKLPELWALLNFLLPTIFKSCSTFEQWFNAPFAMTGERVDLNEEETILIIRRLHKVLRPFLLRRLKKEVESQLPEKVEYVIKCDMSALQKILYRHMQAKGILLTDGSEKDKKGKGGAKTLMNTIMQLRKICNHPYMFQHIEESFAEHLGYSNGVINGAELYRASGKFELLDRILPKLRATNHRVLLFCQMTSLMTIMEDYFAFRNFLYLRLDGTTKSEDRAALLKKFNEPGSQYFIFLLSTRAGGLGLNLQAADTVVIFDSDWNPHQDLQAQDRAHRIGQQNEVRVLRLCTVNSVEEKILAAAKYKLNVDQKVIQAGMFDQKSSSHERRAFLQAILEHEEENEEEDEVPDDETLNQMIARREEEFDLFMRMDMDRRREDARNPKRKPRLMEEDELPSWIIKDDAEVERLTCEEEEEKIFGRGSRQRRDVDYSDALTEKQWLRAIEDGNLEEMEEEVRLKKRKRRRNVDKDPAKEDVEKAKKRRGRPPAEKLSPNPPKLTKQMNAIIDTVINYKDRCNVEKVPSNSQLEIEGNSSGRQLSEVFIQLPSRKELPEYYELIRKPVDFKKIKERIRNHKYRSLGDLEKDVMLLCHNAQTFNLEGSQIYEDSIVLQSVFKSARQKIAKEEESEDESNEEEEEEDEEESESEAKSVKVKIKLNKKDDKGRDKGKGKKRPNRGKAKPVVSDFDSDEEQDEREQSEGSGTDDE
- Test name: MSD SMARCA2 degradation in A549 cell line
- Assay type: cell-based
- Condition: A549, A549 cells, 24 h

Compound	Dmax
Cc1ncsc1-c1ccc(CNC(=O)[C@@H]2C[C@@H](O)CN2C(=O)C(c2cc(OCCN3CCC(N4CCC(c5cnc(N6CCc7[nH]c8nnc(-c9ccccc9O)cc8c7[C@@H]6C)nc5)CC4)CC3)no2)C(C)C)cc1 (single isomer, unassigned) [I-41]	70 to 90%

Please turn your attention to the following entry.
Consider the compound C#Cc1ccc(CNC(=O)[C@@H]2C[C@@H](O)CN2C(=O)[C@@H](NC(=O)N2CCC(N3CC4(CC(N5CC6(CC(N7CCc8[nH]c9nnc(-c%10ccccc%10O)cc9c8[C@H]7C)C6)C5)C4)C3)CC2)C(C)(C)C)cc1 [I-209] . State its measured Dmax.
70 to 90%

----------
- Study target: SMARCA4 (Homo sapiens, UniProt P51532)
- Construct: SMARCA2/SMARCA4 protein degradation selectivity in MV4-11 cells; endogenous in cells; host or cells: MV4-11
- Sequence (P51532 whole entry): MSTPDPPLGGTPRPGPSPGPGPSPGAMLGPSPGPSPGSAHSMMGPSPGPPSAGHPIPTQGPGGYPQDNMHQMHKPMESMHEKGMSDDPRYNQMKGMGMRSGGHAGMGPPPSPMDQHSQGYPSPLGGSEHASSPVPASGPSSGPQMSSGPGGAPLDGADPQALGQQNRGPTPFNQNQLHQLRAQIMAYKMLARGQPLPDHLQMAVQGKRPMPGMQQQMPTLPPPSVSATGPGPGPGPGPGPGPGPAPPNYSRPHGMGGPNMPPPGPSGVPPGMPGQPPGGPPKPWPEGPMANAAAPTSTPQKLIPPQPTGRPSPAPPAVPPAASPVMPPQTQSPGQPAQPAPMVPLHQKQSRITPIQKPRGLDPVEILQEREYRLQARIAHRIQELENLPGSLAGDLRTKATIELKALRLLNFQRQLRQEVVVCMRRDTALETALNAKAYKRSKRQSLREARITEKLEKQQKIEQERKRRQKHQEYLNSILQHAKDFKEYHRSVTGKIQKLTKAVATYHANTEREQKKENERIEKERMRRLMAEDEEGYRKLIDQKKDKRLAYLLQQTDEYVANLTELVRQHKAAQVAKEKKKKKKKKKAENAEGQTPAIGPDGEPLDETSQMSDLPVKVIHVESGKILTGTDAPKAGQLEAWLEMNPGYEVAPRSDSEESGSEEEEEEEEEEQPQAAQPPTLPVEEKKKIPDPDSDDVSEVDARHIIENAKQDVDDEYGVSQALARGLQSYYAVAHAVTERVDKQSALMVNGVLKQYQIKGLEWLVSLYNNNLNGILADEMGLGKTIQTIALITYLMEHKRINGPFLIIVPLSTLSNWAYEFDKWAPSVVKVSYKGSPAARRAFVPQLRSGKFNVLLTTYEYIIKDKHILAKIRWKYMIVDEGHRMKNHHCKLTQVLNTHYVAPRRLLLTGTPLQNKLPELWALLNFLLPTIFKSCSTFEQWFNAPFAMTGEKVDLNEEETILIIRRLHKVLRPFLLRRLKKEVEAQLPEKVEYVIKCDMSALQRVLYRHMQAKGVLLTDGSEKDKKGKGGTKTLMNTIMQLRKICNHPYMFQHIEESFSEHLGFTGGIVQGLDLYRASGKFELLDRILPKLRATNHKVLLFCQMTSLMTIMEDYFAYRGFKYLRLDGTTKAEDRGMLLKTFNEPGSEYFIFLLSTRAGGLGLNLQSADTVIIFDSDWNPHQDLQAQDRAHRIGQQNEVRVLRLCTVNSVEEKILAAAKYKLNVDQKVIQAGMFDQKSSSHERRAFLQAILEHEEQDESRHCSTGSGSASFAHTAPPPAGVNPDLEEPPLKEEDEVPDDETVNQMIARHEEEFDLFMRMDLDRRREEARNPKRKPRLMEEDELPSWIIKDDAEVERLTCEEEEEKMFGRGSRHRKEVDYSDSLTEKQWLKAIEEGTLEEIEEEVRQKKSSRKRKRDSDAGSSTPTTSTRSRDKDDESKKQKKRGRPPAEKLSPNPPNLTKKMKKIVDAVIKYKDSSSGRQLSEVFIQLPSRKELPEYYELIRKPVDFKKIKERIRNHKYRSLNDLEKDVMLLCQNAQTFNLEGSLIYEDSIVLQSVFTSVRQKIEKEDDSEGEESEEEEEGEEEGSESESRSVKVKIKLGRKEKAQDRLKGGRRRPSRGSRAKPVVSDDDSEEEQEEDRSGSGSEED
- Test name: SMARCA4 Western blot degradation in MV4-11 cells
- Format: cell-based
- Condition: MV4-11, MV4-11 cells, 24 h; read-out: SMARCA4 MSD MV411 degradation 24 h: average Dmax %
Dmax values for the compounds below.

Compound	Study target	Property	Assay value
C#Cc1ccc([C@H](C)NC(=O)[C@@H]2C[C@@H](O)CN2C(=O)C(c2cc(N3CC4(CC(N5CCC(N6CCC(N7CCN8c9cc(-c%10ccccc%10O)nnc9NC[C@H]8C7)CC6)CC5)C4)C3)no2)C(C)C)cc1 (some centres unmarked) [I-332]	SMARCA4 (Homo sapiens, UniProt P51532)	Dmax	> 90%
C#Cc1ccc(CNC(=O)[C@@H]2C[C@@H](O)CN2C(=O)[C@@H](NC(=O)C2CC3(C2)CC(N2CCC(N4CCC(N5CCN6c7cc(-c8ccccc8O)nnc7NC[C@H]6C5)CC4)CC2)C3)C(C)(C)C)cc1 (some centres unmarked) [I-137]	SMARCA4 (Homo sapiens, UniProt P51532)	Dmax	< 50%
C#Cc1ccc(CNC(=O)[C@@H]2C[C@@H](O)CN2C(=O)[C@@H](NC(=O)N2CCN(C3CC4(CCN(c5cnc(N6CCN7c8cc(-c9ccccc9O)nnc8NC[C@H]7C6)nc5)CC4)C3)CC2)C(C)(C)C)cc1 [I-284]	SMARCA4 (Homo sapiens, UniProt P51532)	Dmax	50 to 70%
Cc1ncsc1-c1ccc(CNC(=O)[C@@H]2C[C@@H](O)CN2C(=O)[C@@H](NC(=O)[C@H]2CC3(C2)C[C@H](N2CCC(c4ccnc(N5CCN6c7cc(-c8ccccc8O)nnc7NC[C@@H]6C5)n4)CC2)C3)C(C)(C)C)cc1 (single isomer, unassigned) [I-3]	SMARCA4 (Homo sapiens, UniProt P51532)	Dmax	50 to 70%
C#Cc1ccc(CNC(=O)[C@@H]2C[C@@H](O)CN2C(=O)[C@@H](NC(=O)[C@H]2CCC3(CC2)C[C@H](N2CCN(c4cnc(N5CCN6c7cc(-c8ccccc8O)nnc7NC[C@H]6C5)nc4)CC2)C3)C(C)(C)CCO)cc1 (single isomer, unassigned) [I-287]	SMARCA4 (Homo sapiens, UniProt P51532)	Dmax	50 to 70%

Return Dmax for the following compound: Cc1ncsc1-c1ccc(CNC(=O)[C@@H]2C[C@@H](O)CN2C(=O)C(c2cc(OC[C@H]3CC[C@@H](N4CCC(c5cnc(N6CCc7[nH]c8nnc(-c9ccccc9O)cc8c7[C@@H]6C)nc5)CC4)CC3)no2)C(C)C)cc1 (single isomer, unassigned) [I-16]
70 to 90%

Answer with the recorded Dmax for the compound listed here: C#Cc1ccc(CNC(=O)[C@@H]2C[C@@H](O)CN2C(=O)[C@@H](NC(=O)N2CC3(CC(N4CCC(c5cnc(N6CCc7[nH]c8nnc(-c9ccccc9O)cc8c7[C@@H]6C)nc5)CC4)C3)C2)C(C)(C)C)cc1 [I-228]
> 90%

Return Dmax (reported value) for this compound: CC#Cc1ccc(CNC(=O)[C@@H]2C[C@@H](O)CN2C(=O)[C@@H](NC(=O)N2CC3(CC(N4CCC(c5cnc(N6CCc7[nH]c8nnc(-c9ccccc9O)cc8c7[C@H]6C)nc5)CC4)C3)C2)C(C)(C)C)c(OC)c1 [I-271]
< 50%

----------
- Study target: SMARCA2 (Homo sapiens, UniProt P51531)
- Test name: SMARCA2 Western blot degradation in MV4-11 cells
- Type: cell-based
- Parameters: SMARCA2/SMARCA4 protein degradation selectivity in MV4-11 cells; endogenous in cells; host or cells: MV4-11
- Condition: SMARCA2/4 selectivity, MV4-11 cells
Property: Selectivity in MV411

Consider the worked cases shown below.
Molecule	Study target	Assay value
C#Cc1ccc(CNC(=O)[C@@H]2C[C@@H](O)CN2C(=O)[C@@H](NC(=O)N2CC3(CC(N4CCC(c5cnc(N6CCc7[nH]c8nnc(-c9ccccc9O)cc8c7[C@@H]6C)nc5)CC4)C3)C2)C(C)(C)C)c(OCCCOC)c1 [I-227]	SMARCA2 (Homo sapiens, UniProt P51531)	D (D (<10 fold))
C#Cc1ccc(CNC(=O)[C@@H]2C[C@@H](O)CN2C(=O)[C@@H](NC(=O)[C@H]2CCC3(CC2)C[C@H](N2CCC(c4ccc(N5CCN6c7cc(-c8ccccc8O)nnc7NC[C@H]6C5)nc4)CC2)C3)C(C)(C)C)cc1 (single isomer, unassigned) [I-155]	SMARCA2 (Homo sapiens, UniProt P51531)	A (A (>500 fold))
C#Cc1ccc([C@H](C)NC(=O)[C@@H]2C[C@@H](O)CN2C(=O)[C@H](c2cc(OCCN3CCC(N4CCC(N5CCC(CN6CCN7c8cc(-c9ccccc9O)nnc8NC[C@H]7C6)CC5)CC4)CC3)no2)C(C)C)cc1 (single isomer, unassigned) [I-333]	SMARCA2 (Homo sapiens, UniProt P51531)	C (C (10-100 fold))
C#Cc1ccc(CNC(=O)[C@@H]2C[C@@H](O)CN2C(=O)[C@@H](NC(=O)[C@H]2CCC3(CC2)C[C@H](N2CCC(c4cnc(N5CCN6c7cc(-c8ccccc8O)nnc7NC[C@H]6C5)nc4)CC2)C3)C(C)(C)C)c(OCCCOC)c1 (single isomer, unassigned) [I-130]	SMARCA2 (Homo sapiens, UniProt P51531)	D (D (<10 fold))
Cc1ncsc1-c1ccc(CNC(=O)[C@@H]2C[C@@H](O)CN2C(=O)[C@@H](NC(=O)N2CCC3(CCC(N4CCC(c5cnc(N6CCN7c8cc(-c9ccccc9O)nnc8NC[C@H]7C6)nc5)CC4)CC3)CC2)C(C)(C)C)cc1 [I-68]	SMARCA2 (Homo sapiens, UniProt P51531)	C (C (10-100 fold))
C#Cc1ccc([C@H](C)NC(=O)[C@@H]2C[C@@H](O)CN2C(=O)[C@@H](NC(=O)[C@H]2CC3(C2)C[C@H](N2CCC(N4CCC(N5CCN6c7cc(-c8ccccc8O)nnc7NC[C@H]6C5)CC4)CC2)C3)C(C)(C)C)cc1 (single isomer, unassigned) [I-226]	SMARCA2 (Homo sapiens, UniProt P51531)	B (B (>100-500 fold))
Cc1ncsc1-c1ccc(CNC(=O)[C@@H]2C[C@@H](O)CN2C(=O)C(c2cc(OC[C@H]3CC[C@@H](N4CCC(c5cnc(N6CCc7[nH]c8nnc(-c9ccccc9O)cc8c7[C@H]6C)nc5)CC4)CC3)no2)C(C)C)cc1 (single isomer, unassigned) [I-2]	SMARCA2 (Homo sapiens, UniProt P51531)	D (D (<10 fold))
C#Cc1ccc(CNC(=O)[C@@H]2C[C@@H](O)CN2C(=O)[C@@H](NC(=O)N2CC3(CC(N4CCC(N5CCc6[nH]c7nnc(-c8ccccc8O)cc7c6[C@H]5C)CC4)C3)C2)C(C)(C)C)cc1 [I-191]	SMARCA2 (Homo sapiens, UniProt P51531)	C (C (10-100 fold))
C#Cc1ccc(CNC(=O)[C@@H]2C[C@@H](O)CN2C(=O)[C@@H](NC(=O)N2CCN(Cc3ccc(-c4cnc(N5CCN6c7cc(-c8ccccc8O)nnc7NC[C@H]6C5)nc4)cc3)CC2)C(C)(C)C)cc1 [I-269]	SMARCA2 (Homo sapiens, UniProt P51531)	C (C (10-100 fold))
C#Cc1ccc(CNC(=O)[C@@H]2C[C@@H](O)CN2C(=O)[C@@H](NC(=O)N2CCN(C[C@H]3CC[C@@H](N4CCC(N5CCc6[nH]c7nnc(-c8ccccc8O)cc7c6[C@H]5C)CC4)CC3)CC2)C(C)(C)C)cc1 [I-193]	SMARCA2 (Homo sapiens, UniProt P51531)	C (C (10-100 fold))

Give reported Selectivity in MV411 for C#Cc1ccc(CNC(=O)[C@@H]2C[C@@H](O)CN2C(=O)[C@@H](NC(=O)N2CC3(CC(N4CCC(N5CC6(CC(N7CCc8[nH]c9nnc(-c%10ccccc%10O)cc9c8[C@H]7C)C6)C5)CC4)C3)C2)C(C)(C)C)cc1 [I-207] (SMARCA2 (Homo sapiens, UniProt P51531))
B (B (>100-500 fold))

// fetch Selectivity in MV411 for C#Cc1ccc([C@H](C)NC(=O)[C@@H]2C[C@@H](O)CN2C(=O)[C@@H](NC(=O)[C@H]2CCC3(CC2)C[C@H](N2CCN(c4cnc(N5CCN6c7cc(-c8ccccc8O)nnc7NC[C@H]6C5)nc4)CC2)C3)C(C)(C)C)cc1 (single isomer, unassigned) [I-233] ; system: SMARCA2 (Homo sapiens, UniProt P51531)
C (C (10-100 fold))

GET Selectivity in MV411 where system = SMARCA2 (Homo sapiens, UniProt P51531) and item = C#Cc1ccc(CNC(=O)[C@@H]2C[C@@H](O)CN2C(=O)[C@H](NC(=O)N2CC3(CC(N4CCC(c5cnc(N6CCc7[nH]c8nnc(-c9ccccc9O)cc8c7[C@H]6C)nc5)CC4)C3)C2)C(C)(C)CCN2CCNCC2)cc1 [I-339]
C (C (10-100 fold))

Check SMARCA2 (Homo sapiens, UniProt P51531) data and give Selectivity in MV411 for C#Cc1ccc(CNC(=O)[C@@H]2C[C@@H](O)CN2C(=O)[C@@H](NC(=O)[C@H]2CCC3(CC2)C[C@H](N2CCC(c4cnc(N5CCN6c7cc(-c8ccccc8O)nnc7NC[C@H]6C5)nc4)CC2)C3)C(C)(C)C)c(Cl)c1 (single isomer, unassigned) [I-98] .
A (A (>500 fold))

Check SMARCA2 (Homo sapiens, UniProt P51531) data and give Selectivity in MV411 for C#Cc1ccc(CNC(=O)[C@@H]2C[C@@H](O)CN2C(=O)[C@@H](NC(=O)[C@H]2CC[C@H](c3ccc(-c4cnc(N5CCN6c7cc(-c8ccccc8O)nnc7NC[C@H]6C5)nc4)cc3)CC2)C(C)(C)C)cc1 [I-23] .
C (C (10-100 fold))

Please report the measured Selectivity in MV411 for C#Cc1ccc(CNC(=O)[C@@H]2C[C@@H](O)CN2C(=O)[C@@H](NC(=O)[C@H]2CCC3(CC2)C[C@H](N2CCC(N4CCC(N5CCN6c7cc(-c8ccccc8O)nnc7NC[C@H]6C5)CC4)CC2)C3)C(C)(C)C)c(F)c1 (stereo partly shown) [I-258] tested on SMARCA2 (Homo sapiens, UniProt P51531).
C (C (10-100 fold))
